Molecular target: T1, human recombinant soluble CD73 protein (human, UniProt P21589 27-547)
T1 construct: also called huCD73; rhCD73
T1 sequence: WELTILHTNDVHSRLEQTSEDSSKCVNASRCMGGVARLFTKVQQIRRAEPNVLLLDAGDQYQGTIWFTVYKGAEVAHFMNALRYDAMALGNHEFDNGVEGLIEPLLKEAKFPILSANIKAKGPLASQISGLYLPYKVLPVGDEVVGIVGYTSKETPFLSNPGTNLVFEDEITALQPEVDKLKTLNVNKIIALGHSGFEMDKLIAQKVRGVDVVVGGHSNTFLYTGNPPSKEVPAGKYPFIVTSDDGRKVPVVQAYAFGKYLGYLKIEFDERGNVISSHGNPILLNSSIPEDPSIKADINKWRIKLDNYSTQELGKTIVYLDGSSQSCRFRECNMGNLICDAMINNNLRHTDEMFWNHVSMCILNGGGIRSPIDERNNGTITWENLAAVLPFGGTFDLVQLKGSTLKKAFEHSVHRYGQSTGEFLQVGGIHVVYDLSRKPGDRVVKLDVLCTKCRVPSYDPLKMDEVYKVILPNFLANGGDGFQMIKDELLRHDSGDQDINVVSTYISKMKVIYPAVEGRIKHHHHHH
Assay: SPR, Ab captured on Protein A, soluble huCD73 as analyte
Description: SPR measurements were performed on a Biacore™ T200 apparatus at 25° C. Protein-A (GE Healthcare) was immobilized on a Sensor Chip CM5 (GE Healthcare). […] The entire sensorgram sets were fitted using the 1:1 kinetic binding model. Bivalent affinities and kinetic association and dissociation rate constants are calculated. The binding of the antibodies in Table 2 of Example 1 were tested for binding to human soluble dimeric CD73 proteins and were cloned, produced and purified. […]
resultType: Kd (nM)
Number only, in nM; omit the unit.

{"binder": "H2L2 (antibody, human IgG1, V domains shown) VH: QIQLVQSGAEVKKPGASVKVSCKASGYAFTSYNMYWVRQAPGQSLEWMGYIDPYNGGSSYNLTFKGRVTITVDKSASTAYMELSSLRSEDTAVYYCARGYGNYKAWFAYWGQGTLVTVSS VL: DIQMTQSPSSLSASVGDRVTITCKASQSVSNDVAWYQQKPGKAPKLLIYYASTRYTGVPDRFSGSGYGTDFTFTISSLQPEDIATYYCQQDYSSLTFGQGTKLEIK", "resultType": "Kd", "recordedValue": 1.3}

The value of Kd measured for the binder H1L4 (antibody, human IgG1, V domains shown) VH: QIQLVQSGAEVKKPGASVKVSCKASGYTFTSYNMYWVRQAPGQRLEWMGYIDPYNGGSSYNLTFKGRVTITRDKSASTAYMELSSLRSEDTAVYYCARGYGNYKAWFAYWGQGTLVTVSS VL: DVQMTQSPSSLSASVGDRVTITCKASQSVSNDVAWYQQKPGKAPKLLIYYASTRYTGVPDRFSGSGYGTDFTFTISSLQPEDIATYFCQQDYSSLTFGQGTKLEIK turned out to be 0.7

The value of Kd measured for the binder H1L0 (antibody, human IgG1, V domains shown, L0 VL limits counted by alignment with L1) VH: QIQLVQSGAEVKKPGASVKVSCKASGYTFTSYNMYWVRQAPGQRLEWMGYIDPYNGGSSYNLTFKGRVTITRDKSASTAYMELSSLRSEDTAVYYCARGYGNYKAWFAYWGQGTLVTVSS VL: DIQMTQSPSSLSASVGDRVTITCKASQSVSNDVAWYQQKPGKAPKLLIYYASTRYTGVPSRFSGSGSGTDFTFTISSLQPEDIATYYCQQDYSSLTFGQGTKLEIK turned out to be 28.7
